test system: MDA-MB-435; experiment: NCI tumour cell line growth inhibition, 48 h
Calls of active or inactive are those of the source. Rule as the data show it: active = GI50 up to about 1.1 µM and inactive = higher.
Select the matching outcome among active, inactive

Prompt: Which outcome was assigned to COc1cccc(-c2nc(-c3cnccn3)n(Cc3ccccc3)n2)c1 in this test?
Response: inactive

Prompt: Which outcome was assigned to CO[C@H]1C[C@H](O[C@H]2CC[C@@]3(C)[C@H](CC[C@@H]4[C@@H]3CC[C@]3(C)[C@@H](C5=CC(=O)OC5)CC[C@]43O)C2)O[C@H](C)[C@H]1O in this test?
Response: active

Prompt: Which outcome was assigned to CC(NO)/C(=N/O)c1ccco1 (stereo unspecified) in this test?
Response: inactive

Prompt: Which outcome was assigned to OCCN1c2ccccc2Sc2ccccc21 in this test?
Response: inactive

Prompt: Which outcome was assigned to C[C@]12CC[C@H](O)CC1=CC[C@@H]1[C@@H]2CC[C@]2(C)C(=O)CC[C@@H]12 in this test?
Response: inactive

Prompt: Which outcome was assigned to CN(C)c1cccc(/C=C(\C#N)c2ccccc2)c1 in this test?
Response: active

Prompt: Which outcome was assigned to CCOC(=O)C1=[N+]([O-])OC2=C(O)CCCC21 (stereo unspecified) in this test?
Response: inactive

Prompt: Which outcome was assigned to CC(=O)Oc1cc(/C=C/c2ccc(O)cc2)cc(OC(C)=O)c1 in this test?
Response: inactive

Prompt: Which outcome was assigned to COc1ccc(N2C(=O)C(Cl)C2c2cc3cc(Br)ccc3nc2Cl)cc1 (stereo unspecified) in this test?
Response: inactive

Prompt: Which outcome was assigned to Cc1ccc2c(c1)C(=O)C1(C2)Cc2ccc(C)cc2C1=O in this test?
Response: inactive

Prompt: Which outcome was assigned to O=C(CCc1cccc(O)c1)NCCCNC(=O)CCc1cccc(O)c1 in this test?
Response: inactive

Prompt: Which outcome was assigned to CCCCCCc1cc2cc(-c3csc(-c4ccc(OC)cc4)n3)c(=O)oc2cc1O in this test?
Response: inactive

Prompt: Which outcome was assigned to CC(=O)OCCOCn1cnc2c(Cl)nc(Cl)nc21 in this test?
Response: inactive

Prompt: Which outcome was assigned to OC[P+](CO)(CO)C12CC3CC(CC(C3)C1)C2 in this test?
Response: inactive

Prompt: Which outcome was assigned to CC(=O)OC1C(O)COC(O[C@H]2CC[C@]34C[C@]35CC[C@]3(C)C([C@@]6(C)CC[C@@H](C(C)(C)O)O6)[C@@H](O)C[C@@]3(C)C5C[C@H](OC3OCC(O)C(O)C3O)[C@H]4C2(C)C)C1OC1OCC(O)C(O)C1O (stereo partly specified) in this test?
Response: inactive

Prompt: Which outcome was assigned to O=[N+]([O-])c1ccc(Sc2c3ccccc3nc3ccccc23)cn1 in this test?
Response: inactive

Prompt: Which outcome was assigned to Cc1nc2ccc(F)cc2c2c1CCO2 in this test?
Response: inactive

Prompt: Which outcome was assigned to CCC1(O)CC(O)c2c(O)c3c(c(O)c2C1C(=O)OC)C(=O)c1cccc(O)c1C3=O (stereo unspecified) in this test?
Response: inactive

Prompt: Which outcome was assigned to CN(C)N1C(=O)S/C(=C\c2ccc([N+](=O)[O-])cc2)C1=O in this test?
Response: inactive

Prompt: Which outcome was assigned to O=[N+]([O-])c1nccn1CCCNc1ccnc2cc(Cl)ccc12 in this test?
Response: inactive

Prompt: Which outcome was assigned to CC(=O)/C(=C/NC(=S)Nc1ccc(Cl)c(Cl)c1)C(=O)Nc1ccccc1C in this test?
Response: inactive

* * *

tested on: SF-295; experiment: NCI tumour cell line growth inhibition, 48 h
Active and inactive are the calls of the source. Rule as the data show it: active = GI50 up to about 1.1 µM and inactive = higher.
MEASURE: GI50

Prompt: Supply reported GI50 belonging to this compound: N=C(N)NS(=O)(=O)c1ccc(NCc2c3ccccc3nc3ccccc23)cc1
Response: 2.45 µM (inactive)

Prompt: Supply reported GI50 belonging to this compound: O=S(=O)(Oc1ccc2ccccc2c1-c1c(OS(=O)(=O)C(F)(F)F)ccc2ccccc12)C(F)(F)F
Response: > 100 µM (inactive)

Prompt: Supply reported GI50 belonging to this compound: COC(=O)C1=C(C)N2CCOC2CC1c1ccccc1 (centres undefined)
Response: > 100 µM (inactive)

Prompt: Supply reported GI50 belonging to this compound: CON(C)C(=O)C(Cc1ccccc1)NC(=O)OC(C)(C)C (centres undefined)
Response: > 100 µM (inactive)

Prompt: Supply reported GI50 belonging to this compound: CC(=O)NC1C(OCc2ccccc2)OC(COC(=O)CCCCCCCCCCNc2ccc([N+](=O)[O-])c3[nH]c4ccccc4c(=O)c23)C(O)C1OC(C)C(=O)NC(C)C(=O)NC(CCC(N)=O)C(=O)OCc1ccccc1 (centres undefined)
Response: > 100 µM (inactive)

Prompt: Supply reported GI50 belonging to this compound: O=c1cc(N2CCCC2)[nH]c(=O)n1-c1ccccc1
Response: > 100 µM (inactive)

Prompt: Supply reported GI50 belonging to this compound: CC1(C)NC(C)(C)/C(=N\O)C(=NO)/C1=N/O
Response: > 100 µM (inactive)

Prompt: Supply reported GI50 belonging to this compound: C=C(Cl)/C(=C\Br)CCC(Cl)C(C)C.C=C(Cl)/C(=C\Cl)CCC(Cl)C(C)C (centres undefined)
Response: 18.8 µM (inactive)

Prompt: Supply reported GI50 belonging to this compound: Cc1ccc(-c2cc(-c3ccc(Cl)cc3)nc(/N=C3\C(=O)N(CN4CCOCC4)c4ccccc43)n2)cc1
Response: 40.9 µM (inactive)

* * *

Please provide measured GI50 for the entries that follow.
tested on: RXF 393; assay: NCI tumour cell line growth inhibition, 48 h
The source made the active and inactive calls. Rule as the data show it: active = GI50 up to about 1.1 µM and inactive = higher.

Prompt: Supply reported GI50 belonging to this molecule: CCc1ccc(COC(=O)C2=C(C)NC(C)=C(C(=O)OCc3ccc(CC)cn3)C2C2=COCCO2)nc1
Response: 15.4 µM (inactive)

Prompt: Supply reported GI50 belonging to this molecule: CN(C)/N=N/c1ccc(NC=O)cc1
Response: > 100 µM (inactive)

Prompt: Supply reported GI50 belonging to this molecule: OCC1OC(n2cnc3c2NC=NC[C@H]3O)C(O)C1O (some centres undefined)
Response: 238 µM (inactive)

Prompt: Supply reported GI50 belonging to this molecule: CC(C)CCCC(C)[C@H]1CCC(C2C[C@@H](O)[C@@H]3CC(O)[C@@H](O)C[C@]3(CO)C2=O)[C@]1(C)CCO (some centres undefined)
Response: 24.9 µM (inactive)

Prompt: Supply reported GI50 belonging to this molecule: C[C@]12CC[C@H](O)CC1=CC[C@@H]1[C@@H]2CC[C@]2(C)C(=O)CC[C@@H]12
Response: > 100 µM (inactive)

Prompt: Supply reported GI50 belonging to this molecule: CC(=O)/C(=C/NC(=S)Nc1ccc(Cl)c(Cl)c1)C(=O)Nc1ccccc1C
Response: 29.4 µM (inactive)

Prompt: Supply reported GI50 belonging to this molecule: CCOC(=O)C1S/C(=N\c2ccc(Cl)cc2Cl)N=C1C (centres undefined)
Response: 27.5 µM (inactive)

Prompt: Supply reported GI50 belonging to this molecule: C[C@]12CC[C@H](OC3OC(CO)C(O)C(O)C3O)C[C@H]1CC[C@@H]1[C@@H]2CC[C@]2(C)[C@@H](C3=CCOC3=O)CC[C@]12O (some centres undefined)
Response: 8.49 µM (inactive)

Prompt: Supply reported GI50 belonging to this molecule: CN1C(=O)[C@@H]2[C@@H]3c4ccccc4N(S(=O)(=O)C(F)(F)F)[C@@H]3c3[nH]c4ccccc4c3[C@@H]2C1=O
Response: 10.3 µM (inactive)

* * *

system: PC-3; experiment: NCI tumour cell line growth inhibition, 48 h
The source made the active and inactive calls. Rule as the data show it: active = GI50 up to about 1.1 µM and inactive = higher.
Select the matching outcome among active, inactive

Prompt: Which outcome was assigned to CCOC(=O)CNC(=O)C(CSCc1ccc(Br)cc1)NC(=O)CCC(N)C(=O)OCC (configuration not stated) in this test?
Response: inactive

Prompt: Which outcome was assigned to CCOC(CN(C)C(=O)Nc1ccc(Cl)c(Cl)c1)OCC in this test?
Response: inactive

Prompt: Which outcome was assigned to CCN(CC)CCCNc1ncc(C)c2c1c1ccc3c(O)cccc3c1n2C in this test?
Response: active

Prompt: Which outcome was assigned to Cc1ccc(C(=O)C2C=C(c3ccc(C)cc3)SC3C=CCC32)cc1 (configuration not stated) in this test?
Response: inactive

Prompt: Which outcome was assigned to CC1=CC2(C)C=C[C@@H]1C(=O)[C@@]1(C)CC[C@@](O)(C(C)C)[C@H]1CC2 in this test?
Response: inactive

Prompt: Which outcome was assigned to Cc1ccc(-c2cc(-c3ccc(Cl)cc3)nc(/N=C3\C(=O)N(CN4CCOCC4)c4ccccc43)n2)cc1 in this test?
Response: inactive

Prompt: Which outcome was assigned to CCOC(=O)C1=[N+]([O-])OC2=C(O)CCCC21 (configuration not stated) in this test?
Response: inactive

Prompt: Which outcome was assigned to CC(NNC(=O)c1cc[n+]([BH2-]C#N)cc1)c1ccc(Cl)cc1Cl (configuration not stated) in this test?
Response: inactive

Prompt: Which outcome was assigned to C=C1c2nc3ccccc3n2C=C(c2ccccc2)N1c1ccccc1 in this test?
Response: inactive

Prompt: Which outcome was assigned to CC(C)=CCc1c(O)c(CC2=C(O)C(CC=C(C)C)(C(=O)C(C)C)C(O)=C(C)C2=O)c(O)c(C(=O)C(C)C)c1O (configuration not stated) in this test?
Response: inactive

Prompt: Which outcome was assigned to C=C1c2nc3ccccc3n2C=C(c2ccc(OC)cc2)N1c1ccccc1 in this test?
Response: inactive

Prompt: Which outcome was assigned to CSC1(SC2=NCCN2)SC2(NCCN2)S1 in this test?
Response: inactive

Prompt: Which outcome was assigned to Nc1ncnc2c1nc(Cl)n2[C@@H]1O[C@@H]2COP(=O)(O)O[C@H]2[C@H]1O in this test?
Response: inactive

Prompt: Which outcome was assigned to N#CC(C(=O)O)C(c1c(Cl)cccc1Cl)C(C#N)C(=O)O (configuration not stated) in this test?
Response: inactive

Prompt: Which outcome was assigned to O=C(O)Cc1ccc(Nc2nc3ccccc3nc2C(=O)O)cc1 in this test?
Response: inactive

Prompt: Which outcome was assigned to COc1cc(OC)cc(Oc2nc3ccc(C(F)(F)F)cc3nc2-c2ccccc2)c1 in this test?
Response: inactive

Prompt: Which outcome was assigned to CCOP(C)(=O)C(Cc1c[nH]c2ccccc12)C(=O)O (configuration not stated) in this test?
Response: inactive

Prompt: Which outcome was assigned to CCCCCCc1cc2cc(-c3csc(-c4ccc(OC)cc4)n3)c(=O)oc2cc1O in this test?
Response: inactive

Prompt: Which outcome was assigned to O=C(Nc1ccc(S(=O)(=O)Nc2ncccn2)cc1)c1c2ccccc2nc2ccccc12 in this test?
Response: inactive

Prompt: Which outcome was assigned to CC(C)(C)OC(=O)CC(NC(=O)OC(C)(C)C)C(=O)NC(C(=O)O)C(O)c1ccccc1 (configuration not stated) in this test?
Response: inactive

Prompt: Which outcome was assigned to CON(C)C(=O)C(Cc1ccccc1)NC(=O)OC(C)(C)C (configuration not stated) in this test?
Response: inactive

Prompt: Which outcome was assigned to CC(NO)/C(=N/O)c1ccco1 (configuration not stated) in this test?
Response: inactive
